Every entry's value here was drawn from a melting point compilation (Tetko et al.; mined from patent text by program, amines drawn as free bases though some values may be those of a salt).

Listed next: entries and their corresponding melting point.

{"molecule": "COC(=O)c1ccc2sc(C)c(Cl)c2c1", "melting point": "85 to 86 °C"}
{"molecule": "CCOc1nn(C(=S)Oc2ccccc2)c(=O)n1C", "melting point": "123 °C"}
{"molecule": "CCOC(=O)C1=C2COC=CN2C(C)=C(C(=O)OC)C1c1ccccc1Cl (stereo unspecified)", "melting point": "126 to 127 °C"}
{"molecule": "CC(C)(C)C1=NN(c2ccc(C(=O)O)cc2)C(c2ccccc2Cl)C1 (stereo unspecified)", "melting point": "229 °C"}
{"molecule": "O=c1ccc(-c2ccc(-n3cnc4c3CCCC4)cc2)n[nH]1", "melting point": "266 to 267 °C"}
{"molecule": "CC(C)OC(=O)c1cc2c(cn1)[nH]c1cccc(Cc3ccccc3Cl)c12", "melting point": "258 to 260 °C"}
{"molecule": "NC(=O)c1ccc(-c2ccc(Cl)cc2)nc1", "melting point": "245 to 258 °C"}
{"molecule": "CC1Cc2ccc(C#N)cc2C1=O (stereo unspecified)", "melting point": "95 °C"}
{"molecule": "CCn1cc(C(=O)O)c(=O)cc1-c1ccc(OC)cc1", "melting point": "215 to 217 °C"}
{"molecule": "BrCc1ccc(OCC(c2ccccc2)c2ccccc2)cc1", "melting point": "70 to 73 °C"}
{"molecule": "Cc1cccc(C)c1CNc1cc(C2=NCCN2)cc2c1nc(C)n2C", "melting point": "273 to 274 °C"}

---

# maps each entry to its melting point
result.type: melting point

{"compound": "Cc1nn(-c2ccccn2)c2c1C(O)CC(C)(C)C2 (stereo not given)", "measurement": "125 to 126 °C"}
{"compound": "C[C@H](NC(=O)OCc1ccccc1)C(=O)N1CCC[C@H]1C(=O)NC1CCCC1", "measurement": "118 to 119 °C"}
{"compound": "CC(C)C(C#N)c1ccc(O)c(O)c1 (stereo not given)", "measurement": "134 to 136 °C"}
{"compound": "COC(=O)C1=C(CCc2ccccc2)NC(CC(=O)N2CCN(CC(=O)N3CCCC3)CC2)=C(C(=O)OC)C1c1c(Cl)cccc1Cl (stereo not given)", "measurement": "180 to 184 °C"}
{"compound": "ON=Cc1c(-c2ccccc2Br)ccc2c1OCO2", "measurement": "168 to 169 °C"}

---

Each entry below carries its reported melting point.
result.type: melting point

{"compound": "COC1CN(Cc2ccc(Nc3cc(-c4cccc(-n5ncc6cc(C(C)(C)C)cc(F)c6c5=O)c4CO)nn(C)c3=O)nc2)C1", "measurement": "140 to 142 °C"}
{"compound": "CNS(=O)(=O)CCc1ccc(N)cc1", "measurement": "101 to 105 °C"}
{"compound": "COc1cc2c(cc1OC)-c1c(OC)c(OC)cc3c1C(C2)N(C)CC3 (stereo not given)", "measurement": "112 to 114 °C"}
{"compound": "CCCc1nn(-c2ccc(C(F)(F)F)cn2)cc1CCCOc1ccccc1CCC(=O)O", "measurement": "87 to 88 °C"}
{"compound": "O=[N+]([O-])c1ccc(-c2cnn3c(O)ncnc23)cc1", "measurement": "> 300 °C"}

---

Collected melting point values appear next to each entry.

{"compound": "COC(=O)c1c(Cl)ccc(C(=O)O)c1Cl", "melting point": "183 to 185 °C"}
{"compound": "Cc1nn(-c2cccnc2)c2nc3cc(F)c(F)cc3c(Cl)c12", "melting point": "192 to 194 °C"}
{"compound": "COC(=O)C=C1NC(C)(CO)COC1=O (centres undefined)", "melting point": "62 to 63 °C"}
{"compound": "COc1cc2ncnc(NC3=CC(=O)C(Nc4ccccc4)=CC3=O)c2cc1OC", "melting point": "258 to 261 °C"}
{"compound": "O=C(c1ccc(F)cc1)N1CC2CC2(c2ccccc2)C1 (centres undefined)", "melting point": "101 to 103 °C"}
{"compound": "COc1cc(-c2ccc3cc4c(cc3c2C=O)OCO4)c([N+](=O)[O-])cc1OC", "melting point": "225 °C"}
{"compound": "CCn1c(Oc2cccc(NS(C)(=O)=O)c2)nnc1[C@@H](C)NS(=O)(=O)c1ccc(Cl)c(Cl)c1", "melting point": "117 to 118 °C"}
{"compound": "O=C(O)C(=O)c1ccc(OCCOC2CCCCC2)cc1", "melting point": "96 to 98 °C"}
{"compound": "Cc1onc(-c2ccccc2)c1C(=O)N[C@@H]1N=C(c2ccccc2)c2ccccc2N(C)C1=O", "melting point": "123 to 126 °C"}
{"compound": "CC1CN(CCCCC(c2ccc(F)cc2)c2ccc(F)cc2)CCN1CC(=O)Nc1c(Cl)cc(NC(N)=O)cc1Cl (centres undefined)", "melting point": "120 °C"}
{"compound": "CC(C)(C)OC(=O)NC1CCCCCC=CC2CC2(C(=O)NS(=O)(=O)C2CC2)NC(=O)C2CC(OC(=O)c3ccccc3)CN2C1=O (centres undefined)", "melting point": "140 to 142 °C"}
{"compound": "Cc1cc(C(=O)NC(C)CN(C)CC(C)NC(=O)c2cc(C)cc3nc4ccccc4nc23)c2nc3ccccc3nc2c1 (centres undefined)", "melting point": "75 to 78 °C"}
{"compound": "Cc1sc(S(=O)(=O)NC(C)(C)CO)cc1NC(=O)c1cnn2c(C(F)F)cc(-c3ccc(C(F)(F)F)cc3)nc12", "melting point": "180 °C"}
{"compound": "Cc1cccc2c1NC(=O)C(CCCN1CCN(c3ccc(F)cc3)CC1)S2 (centres undefined)", "melting point": "116 to 117 °C"}
{"compound": "COC(=O)CN(CC(=O)OC)c1cccc([N+](=O)[O-])c1", "melting point": "54 to 57 °C"}
{"compound": "Cc1ncc(N)cc1Nc1nccc(-c2cccnc2)n1", "melting point": "135 °C"}
{"compound": "COc1cccc2c(Nc3ccc(C(=O)NC4CCN(Cc5ccccc5)CC4)cc3)c(C(=O)NC3CCN(C)CC3)cnc12", "melting point": "230 to 232 °C"}
{"compound": "CCOC(=O)C1CCN(c2nnc(NCc3ccc(OC)c(Cl)c3)c3cc([N+](=O)[O-])ccc23)CC1", "melting point": "208 to 210 °C"}
{"compound": "COc1ccc(C(=O)Cc2ccccc2)c(Cl)c1Cl", "melting point": "125 to 127 °C"}
{"compound": "O=C(OCc1ccccc1)C(CC(=O)N1Cc2cscc2C1)Cc1ccccc1 (centres undefined)", "melting point": "122 to 124 °C"}
{"compound": "O=c1c2cccnc2c(-c2cccc([N+](=O)[O-])c2)nn1Cc1ccncc1", "melting point": "167 to 168 °C"}
{"compound": "O=C1NCCCCC1(Br)Br", "melting point": "156 to 159 °C"}
{"compound": "COc1ccc(-c2cc(C=CC(=O)O)cs2)cc1C(C)(C)C", "melting point": "197 to 198 °C"}
{"compound": "CCOC(=O)c1cc2c(nc1COc1ccc(C=O)cc1)CCCCC2", "melting point": "83 to 84 °C"}
{"compound": "Cc1[nH]c2cccc(/C=C/C(=O)OCc3ccccc3)c2c1Cc1cccnc1", "melting point": "180 to 182 °C"}
{"compound": "CSc1ccc(NC(=O)C2(C)CC2)cc1C(F)(F)F", "melting point": "97 to 98 °C"}
{"compound": "Cc1ccc(S(=O)(=O)NCC(O)(Cn2cncn2)c2ccc(F)cc2F)cc1 (centres undefined)", "melting point": "130 to 136 °C"}
{"compound": "O=C(O)C(Cl)(Cl)CCCCCCCCCCC#Cc1ccccc1", "melting point": "155 to 157 °C"}
{"compound": "O=C(NCCC1=CCCCC1)NCCC1=CCCCC1", "melting point": "129 to 131 °C"}
{"compound": "CC(C)(C)NC(=O)[C@@H]1C[C@H](N2CCOCC2)CN1C(=O)OC(C)(C)C", "melting point": "172 to 173 °C"}
{"compound": "COc1c[nH]c(=O)c([N+](=O)[O-])c1", "melting point": "179 °C"}
{"compound": "Cc1oc(-c2ccco2)nc1COc1ccc(COc2nn(Cc3ccccc3)cc2C(=O)O)cc1Cl", "melting point": "191 to 192 °C"}
{"compound": "CC(=O)Nc1ccc(-c2cc(-c3c(-c4ccccn4)nc4ccccn34)ccn2)cc1", "melting point": "133 °C"}
{"compound": "CC(=O)Oc1cc2oc(=O)ccc2cc1C", "melting point": "147 °C"}
{"compound": "CC1(C(=O)O)CCc2c(C(=O)c3ccc(Cl)cc3)cccc21 (centres undefined)", "melting point": "146 to 150 °C"}
{"compound": "COc1ccc2nc3cc(OC)c(=O)c(Cl)c-3sc2c1", "melting point": "264 °C"}
{"compound": "CC(C)(O)[C@H](Cc1ccccc1)NC(=O)C(Cl)(Cl)Cl", "melting point": "88 °C"}
{"compound": "O=C(c1ccccc1)c1ccc(N2CCN(c3ccncc3)CC2)cc1", "melting point": "136 to 137 °C"}
{"compound": "COc1cc(C(=O)Nc2ccc3c(c2)CCN(C)C3)cc(OC)c1OC", "melting point": "234 to 235 °C"}
